test system: TN full-length virus; assay: HCV antiviral treatment of Huh7.5 cells infected with TN full-length virus (first passage TN_LSGF/A1226G/Q1773H); type: cell-based, hepatitis C virus (genotype 1a); details: Hepatitis C virus, TN full-length virus, 72 hours post-infection, read-out: Median effective concentration (EC50)
quantityName: pEC50
Schema: pEC50 number; meaning minus log10 of the concentration expressed in molar units.

-- ask Give its pEC50 value. Item: COC(=O)N[C@H](C(=O)N1CCC[C@H]1c1nc(-c2ccc(-c3ccc(-c4c[nH]c([C@@H]5CCCN5C(=O)[C@@H](NC(=O)OC)C(C)C)n4)cc3)cc2)c[nH]1)C(C)C [daclatasvir]
-- reply 10.49
